Sourced from patent US20230365571A1

Target: UniProtKB Q8TCT8
Sequence (Q8TCT8 26-520): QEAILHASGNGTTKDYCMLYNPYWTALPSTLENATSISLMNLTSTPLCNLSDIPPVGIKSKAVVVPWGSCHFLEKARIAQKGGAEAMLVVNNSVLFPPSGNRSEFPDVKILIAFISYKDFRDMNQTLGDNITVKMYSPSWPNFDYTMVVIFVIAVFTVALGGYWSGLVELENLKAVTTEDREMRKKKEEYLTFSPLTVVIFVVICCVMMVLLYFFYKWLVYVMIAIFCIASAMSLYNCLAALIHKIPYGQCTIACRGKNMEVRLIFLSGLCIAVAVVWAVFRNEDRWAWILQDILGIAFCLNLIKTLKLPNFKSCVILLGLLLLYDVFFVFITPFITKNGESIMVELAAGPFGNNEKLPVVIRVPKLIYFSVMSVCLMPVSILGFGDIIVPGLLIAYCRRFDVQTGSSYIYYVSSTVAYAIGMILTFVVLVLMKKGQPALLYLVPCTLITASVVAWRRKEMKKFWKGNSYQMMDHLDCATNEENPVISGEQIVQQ
Test: Sppl2a RGA (reporter gene assay) in HEK293 cells
Type: cell-based
Design: expressed in transfected cells; host or cells: HEK293 (transient)
Conditions: NT-TNF-VP16-Gal4 substrate, Gal4-luciferase reporter, 24 h
QUANTITY: IC50 (nM)
Respond numerically; units are nM and should not be typed.

molecule="Cn1nc(-c2cc(C3CC3)no2)cc1NC(=O)C[C@H](C(=O)N[C@@H]1C(=O)N2CC3(CC3)CN2C(=O)c2ccccc21)C1CC1 [Example 103]" result_unit=nM assay_result=13
molecule="CC(C)NC(=O)c1ncc(NC(=O)C[C@@H](C)C(=O)N[C@@H]2C(=O)N3CCCN3Cc3ccccc32)s1 [Example 91]" result_unit=nM assay_result=24
molecule="COCCn1cc(-c2nc(Cl)c(NC(=O)C[C@@H](C)C(=O)N[C@@H]3C(=O)N4CCCN4Cc4ccccc43)s2)cn1 [Example 99]" result_unit=nM assay_result=50
molecule="Cc1nc(-c2cncc(F)c2)sc1NC(=O)C[C@@H](C)C(=O)N[C@@H]1C(=O)N2CCCN2Cc2ccccc21 [Example 79]" result_unit=nM assay_result=10
molecule="CC[C@H](CNC(=O)c1sc(C2=CCCC2)nc1Cl)C(=O)N[C@@H]1C(=O)N2CCCN2C(=O)c2ccccc21 [Example 28]" result_unit=nM assay_result=88

Param item = CC[C@H](CNC(=O)c1sc(-c2cnn(C(F)F)c2)nc1Cl)C(=O)N[C@@H]1C(=O)N2CC3(CC3)CN2C(=O)c2ccccc21 [Example 45] ; retrieve measured IC50.
86

Entry under review: Cc1cc(-c2nc(C)c(C(=O)NC[C@H](C(=O)N[C@@H]3C(=O)N4CCCN4C(=O)c4ccccc43)C3CC3)s2)on1 [Example 41] . Reported IC50?
37

Field request: IC50 | item: CC[C@H](CNC(=O)c1sc(-c2ccno2)nc1C)C(=O)N[C@@H]1C(=O)N2CCCN2Cc2ccccc21 [Example 32]
10

Name the reported IC50 value associated with the molecule CC[C@H](CNC(=O)c1sc(C2CC2)nc1C(F)(F)F)C(=O)N[C@@H]1C(=O)N2CC3(CC3)CN2C(=O)c2ccccc21 [Example 59]
661

Tell me the measured IC50 of Cc1ccc(-c2cc(NC(=O)C[C@@H](C)C(=O)N[C@@H]3C(=O)N4CCCN4Cc4ccccc43)n(C)n2)cn1 [Example 105] , please.
23

Fill in the blank: the reported IC50 of C[C@H](CC(=O)Nc1cc(NC(=O)C(F)(F)C(F)(F)F)nn1C)C(=O)N[C@@H]1C(=O)N2CCCN2Cc2ccccc21 [Example 70] is ____.
13

Value lookup for IC50; key = Cc1nc(C(=O)NC(C)C)sc1C(=O)NC[C@H](C(=O)N[C@@H]1C(=O)N2CCCN2Cc2ccccc21)C(F)(F)F [Example 14]
3

Item under review: O=C(NC[C@H](C(=O)N[C@@H]1C(=O)N2CCCN2C(=O)c2ccccc21)C(F)(F)F)c1sc(-c2ccc(C(F)(F)F)nc2)nc1Cl [Example 40] . Reported IC50?
42
